assayedTarget: Galectin-9C (Homo sapiens, UniProt O00182)
Construct: N and C respectively represent N-terminal side carbohydrate-recognition domain and C-terminal side carbohydrate-recognition domain; made in house
Sequence (O00182 227-355 limits assumed): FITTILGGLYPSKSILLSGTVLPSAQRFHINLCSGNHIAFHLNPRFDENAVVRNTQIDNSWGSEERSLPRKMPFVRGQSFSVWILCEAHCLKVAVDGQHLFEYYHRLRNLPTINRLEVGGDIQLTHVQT
assaySummary: FAC affinity test on galectin-immobilized column
Type: binding
measurementSetup: pyridyl-aminated carbohydrate; galectin-9C immobilized 3.0 mg/ml; less than 5 μl = below interaction detection limit
readout: V − V0 Value

Past entries and their recorded results:
- molecule: "CC(=O)NC1C(O)OC(COS(=O)(=O)O)C(OC2OC(COS(=O)(=O)O)C(O)C(OC3OC(COS(=O)(=O)O)C(OC4OC(CO)C(O)C(OC5(C(=O)O)CC(O)C(NC(C)=O)C(C(O)C(O)CO)O5)C4O)C(O)C3NC(C)=O)C2O)C1O (stereo not drawn)"
  resultValue: "<5.0 µL"
- molecule: "CC(=O)N[C@H]1[C@H](O[C@H]2[C@H](O)[C@@H](O)[C@H](O[C@H]3[C@@H](O)[C@@H](CO)O[C@@H](O[C@H]4[C@H](O)[C@@H](O)[C@H](O[C@H]5[C@@H](O)[C@@H](CO)O[C@@H](O[C@H]6[C@H](O)[C@@H](O)[C@H](O[C@H]7[C@@H](O)[C@@H](CO)OC(O)[C@@H]7NC(C)=O)O[C@@H]6C(=O)O)[C@@H]5NC(C)=O)O[C@@H]4C(=O)O)[C@@H]3NC(C)=O)O[C@@H]2C(=O)O)O[C@H](CO)[C@H](O)[C@@H]1O (stereo partly drawn)"
  resultValue: "<5.0 µL"

Measured V − V0 Value of CC(=O)NC1C(OC2C(C(=O)O)OC(OC3C(O)C(CO)OC(OC4C(C(=O)O)OC(OC5C(O)C(CO)OC(OC6C(C(=O)O)OC(OC7C(O)C(CO)OC(OC8C(C(=O)O)OC(OC9C(O)C(CO)OC(O)C9NC(C)=O)C(O)C8O)C7NC(C)=O)C(O)C6O)C5NC(C)=O)C(O)C4O)C3NC(C)=O)C(O)C2O)OC(CO)C(O)C1O (stereo not drawn) : <5.0 µL

====

assayedTarget: Galectin-3 (Homo sapiens)
Construct: made in house
Sequence (P17931 whole entry): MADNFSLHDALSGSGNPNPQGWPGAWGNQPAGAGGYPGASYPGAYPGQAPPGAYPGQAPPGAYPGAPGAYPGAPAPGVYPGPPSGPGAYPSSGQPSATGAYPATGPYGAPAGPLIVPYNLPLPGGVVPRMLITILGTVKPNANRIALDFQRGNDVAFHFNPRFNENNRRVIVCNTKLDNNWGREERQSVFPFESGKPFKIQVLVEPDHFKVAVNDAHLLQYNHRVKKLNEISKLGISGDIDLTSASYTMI
assaySummary: FAC affinity test on galectin-immobilized column
Format: binding
measurementSetup: pyridyl-aminated carbohydrate; galectin-3 immobilized 0.5 mg/ml; less than 5 μl = below interaction detection limit
Procedure: Various galectin molecules-immobilized columns were prepared by the method described by Nakamura S, Yagi F, Totani K, Ito γ and Hirabayashi J in FEBS J., 272, 2784-2799 (2005), using NHS Sepharose (manufactured by Amersham Bioscience) as the carrier for immobilizing galectin molecules and in accordance with the instructions attached thereto (put in parentheses is immobilization concentration, mg galectin/ml carrier). […]
readout: V − V0 Value (µL)
Hi! Could you send only the number? It should be in µL, unit omitted.

Measured V − V0 Value of CC(=O)NC1C(OC2C(C(=O)O)OC(OC3C(O)C(CO)OC(OC4C(C(=O)O)OC(OC5C(O)C(CO)OC(OC6C(C(=O)O)OC(OC7C(O)C(CO)OC(OC8C(C(=O)O)OC(OC9C(O)C(CO)OC(O)C9NC(C)=O)C(O)C8O)C7NC(C)=O)C(O)C6O)C5NC(C)=O)C(O)C4O)C3NC(C)=O)C(O)C2O)OC(CO)C(O)C1O (stereo not drawn) [CH9, (GalNAc β1-4 GlcA β1-3)4 GalNAc] : 15.6

Measured V − V0 Value of CC(=O)NC1C(O)OC(CO)C(O)C1OC1OC(C(=O)O)C(OC2OC(CO)C(O)C(OC3OC(C(=O)O)C(OC4OC(CO)C(O)C(OC5OC(C(=O)O)C(OC6OC(CO)C(O)C(OC7OC(C(=O)O)C(OC8OC(CO)C(O)C(OC9OC(C(=O)O)C(OC%10OC(CO)C(O)C(OC%11OC(C(=O)O)C(O)C(O)C%11O)C%10NC(C)=O)C(O)C9O)C8NC(C)=O)C(O)C7O)C6NC(C)=O)C(O)C5O)C4NC(C)=O)C(O)C3O)C2NC(C)=O)C(O)C1O (stereo not drawn) [CH12] : 16.8

Measured V − V0 Value of CC(=O)N[C@H]1[C@H](O[C@H]2[C@H](O)[C@@H](O)[C@H](O[C@H]3[C@@H](O)[C@@H](CO)O[C@@H](O[C@H]4[C@H](O)[C@@H](O)[C@H](O[C@H]5[C@@H](O)[C@@H](CO)O[C@@H](O[C@H]6[C@H](O)[C@@H](O)[C@H](O[C@H]7[C@@H](O)[C@@H](CO)OC(O)[C@@H]7NC(C)=O)O[C@@H]6C(=O)O)[C@@H]5NC(C)=O)O[C@@H]4C(=O)O)[C@@H]3NC(C)=O)O[C@@H]2C(=O)O)O[C@H](CO)[C@H](O)[C@@H]1O (stereo partly drawn) [CH7, (GalNAc β1-4 GlcA β1-3)3 GalNAc] : 10.7
